Tested on: XIP peptide (Xip251-270) binding
Assay: small-molecule binders of XIP peptide, primary screen, biochemical, small-molecule microarray, fluorescence 635/667 nm, 0.1 µg/mL protein (AID 1182)
Details: fluorescent protein binding, 635 nm, higher = more signal, called active from +8 up or from −8 down
# composite z-score >= 0.5 gives 1, anything below gives -1

>>> class_name("C=C(/C(=C/C[C@H](OC(C)=O)c1cccc(OCCO)c1)c1cc(C(=O)OC)ccc1OC)C(C)C")
-1
>>> class_name("COC(=O)C1=CC(c2ccc(CO)cc2)=CC(c2cccs2)N(C)C=C1C(=O)OC (configuration not stated)")
1
>>> class_name("COCCOC(=O)N1C(=O)[C@@]2(c3cc(C#CC4(O)CCCCCC4)ccc31)[C@H](c1ccccc1OCCO)N1[C@H](c3ccccc3)[C@H](c3ccccc3)OC(=O)[C@H]1[C@@H]2C(=O)Nc1nc2ccccc2s1")
1
>>> class_name("COc1ccc([Si](C)(C)[C@H]2[C@H](CC(=O)N(CCO)Cc3ccccc3)O[C@@]3(C(=O)N(Cc4ccc(N5CCC5=O)cc4)c4ccccc43)[C@@H]2C)cc1")
1
>>> class_name("C=CC[C@@]1(C(=O)NCc2ccccc2)N=C(c2ccc(OCCCO)cc2)O[C@@H]1c1ccccc1")
1
>>> class_name("C/C=C/[C@@H](CCn1cc(CCO[Si](C(C)C)(C(C)C)C(C)C)nn1)[Si](C)(C)c1ccc(OC)cc1")
-1

###

// reported composite z-score for each item listed
Tested on: PRMT1 (protein arginine N-methyltransferase 1)
Assay: PRMT1 binders on small-molecule microarrays, primary screen, biochemical, small-molecule microarray, 635 nm fluorescence (AID 1088);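 further: binding of Prmt1 protein to compounds spotted on small-molecule microarray slides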
Conditions: small-molecule microarray binding, higher = more signal
property.name: composite z-score

>>> recorded_value("COc1ccc([Si](C)(C)[C@@H]2[C@@H](CC(=O)N3CCC[C@H]3CO)O[C@]3(C(=O)N(Cc4ccc(N5CCC5=O)cc4)c4ccccc43)[C@H]2C)cc1")
1.55
>>> recorded_value("COCCOC(=O)N1C(=O)[C@@]2(c3cc(C#CC4(O)CCCCCC4)ccc31)[C@H](c1ccccc1OCCO)N1[C@H](c3ccccc3)[C@H](c3ccccc3)OC(=O)[C@H]1[C@@H]2C(=O)Nc1nc2ccccc2s1")
1.55
>>> recorded_value("COc1ccc([Si](C)(C)[C@H]2[C@H](CC(=O)N(CCO)Cc3ccccc3)O[C@@]3(C(=O)N(Cc4ccc(N5CCC5=O)cc4)c4ccccc43)[C@@H]2C)cc1")
0.499
>>> recorded_value("COc1c(C)cc(-c2cc3c(c(CCc4ccccc4)n2)[Si](C(C)C)(C(C)C)OC3)cc1C")
1.42
>>> recorded_value("COCCOC(=O)N1C(=O)[C@@]2(c3cc(C#CC4(O)CCCCCC4)ccc31)[C@H](C(=O)NC[C@H](O)c1ccccc1)[C@H]1C(=O)O[C@H](c3ccccc3)[C@H](c3ccccc3)N1[C@@H]2c1ccccc1OCCO")
1.55
>>> recorded_value("COCCCN1C(=O)[C@@]2(Cc3ccccc31)c1ccccc1C(=O)N(Cc1ccccc1Cl)[C@H]2c1ccc(CO)cc1")
0.952
>>> recorded_value("C=C(CCCC)/C(=C/C[C@H](OC(=O)c1ccncc1)c1ccc(CO)o1)c1cnc2ccccc2c1")
1.56
>>> recorded_value("C=CC[C@@]1(C(=O)NCc2ccccc2)N=C(c2ccc(OCCCO)cc2)O[C@@H]1c1ccccc1")
1.29
>>> recorded_value("[N-]=[N+]=NCc1ccccc1C[C@@]1(C(=O)O)N=C(c2ccc(OCCCO)cc2)O[C@@H]1c1ccccc1")
0.244
>>> recorded_value("C=CCNC(=O)[C@@H]1[C@H]2C(=O)O[C@H](c3ccccc3)[C@H](c3ccccc3)N2[C@H](c2ccc(O)cc2)[C@@]12C(=O)Nc1ccccc12")
1.45
>>> recorded_value("COc1ccc([Si](C)(C)[C@@H]2[C@@H](CC(=O)N3CCC[C@H]3CO)O[C@]3(C(=O)N(Cc4ccc(I)cc4)c4ccccc43)[C@H]2C)cc1")
1.56
>>> recorded_value("COC(=O)c1c2oc(c1C(=O)OC)C(=O)N[C@@H](C(C)C)Cn1nncc1C1(CCCCC1)NC(=O)N[C@H](CO)CC2")
-0.143
>>> recorded_value("O=C(O)[C@H]1C[C@H]2C(=O)N[C@@H](Cc3ccccc3)C(=O)N2[C@H]1c1ccc(O)cc1")
1.32

###

Assay: HepG2 cell viability effects, profiling panel, calcein-AM fluorescence, 48 h, basal (AID 1164)
Details: higher = more signal
Class membership depends on z-score alone; the intervals are lower segment (below -0.9), middle segment (-0.9 to below 0.3), upper segment (0.3 or more)

>>> class_name("C[C@@H](OCc1ccccc1)C1NC(=O)[C@@]23C(=O)N[C@@H](Cc4ccccc4)C2[C@H](C)[C@@]2(C)O[C@H]2C3/C=C/C/C=C\\CNC(=O)[C@@H]2CCCN2C1=O (some centres undefined)")
"middle segment"
>>> class_name("C=C(C1=CCN(S(=O)(=O)c2ccc(C)cc2)C1)[C@@H](OC(C)=O)[C@@H]1CCCN1S(=O)(=O)c1ccccc1[N+](=O)[O-]")
"lower segment"
>>> class_name("O=C1O[C@H](c2ccccc2)[C@H](c2ccccc2)N2[C@H]1[C@@H](C(=O)Nc1nc3ccccc3s1)[C@]1(C(=O)Nc3ccc(C#CCCO)cc31)[C@H]2c1ccccc1OCCO")
"upper segment"
>>> class_name("C=C(COC)/C(=C/C[C@H](OC(C)=O)c1cccc(OCCO)c1)c1cc(C(=O)OC)ccc1OC")
"lower segment"
>>> class_name("COc1ccc([Si](C)(C)[C@H]2[C@H](CC(=O)N(CCO)Cc3ccccc3)O[C@@]3(C(=O)N(Cc4ccc(N5CCC5=O)cc4)c4ccccc43)[C@@H]2C)cc1")
"middle segment"
>>> class_name("C=CCNC(=O)[C@H]1[C@@H]2C(=O)O[C@@H](c3ccccc3)[C@@H](c3ccccc3)N2[C@@H](c2ccc(OCCO)cc2)[C@]12C(=O)Nc1ccc(C#CCCO)cc12")
"upper segment"
>>> class_name("COCCCNC(=O)[C@@]1(Cc2ccccc2CN=[N+]=[N-])COC(c2ccc(OCCCO)cc2)=N1")
"upper segment"
>>> class_name("O=C(NCC(F)(F)F)[C@@H]1c2ccccc2C(=O)N(C2Cc3ccccc3C2)[C@H]1c1ccc(CO)cc1")
"middle segment"
>>> class_name("CC(C)(C)OC(=O)CC[C@@]1(C(=O)N2CCOCC2)N=C(c2ccc(OCCCO)cc2)O[C@@H]1c1ccccc1")
"middle segment"
>>> class_name("CC(C)(C)OC(=O)CC[C@]1(C(=O)NCc2ccccc2)COC(c2ccc(OCCCO)cc2)=N1")
"middle segment"
>>> class_name("COCCOC(=O)N1C(=O)[C@@]2(c3cc(C#CCNC(N)=O)ccc31)[C@H](C(=O)NC[C@H](O)c1ccccc1)[C@H]1C(=O)O[C@H](c3ccccc3)[C@H](c3ccccc3)N1[C@@H]2c1ccc(O)cc1")
"upper segment"
>>> class_name("C#CCOc1ccc(C[C@H]2C(=O)O[C@H](Cc3ccccc3)[C@H](/C=C/C3CC3)N2CC#C)cc1")
"lower segment"
>>> class_name("CC(C)CNC(=O)[C@@H]1c2ccccc2C(=O)N(Cc2ccc(OC(F)(F)F)cc2)[C@H]1c1ccc(CO)cc1")
"upper segment"
>>> class_name("O=C(N1CCCCC1)[C@@]1(Cc2ccccc2)N=C(c2ccc(OCCCO)cc2)O[C@H]1c1ccccc1")
"lower segment"

###

Molecular target: Carbonic anhydrase 2 (Homo sapiens) (UniProt P00918)
Assay: CAII small-molecule binders, profiling panel, biochemical, small-molecule microarray, Alexa647-labelled CAII (AID 1122)
Settings: CAII-A647 binding fluorescence, higher = more signal
Below is a list of entries, each paired with its recorded composite z-score value.
property.name: composite z-score

>>> recorded_value("C=CC[C@]1(C(=O)N2CCCCC2)COC(c2ccc(OCCCO)cc2)=N1")
0.818
>>> recorded_value("C=CCC(OC(C)=O)[C@@H]1[C@@H](N(Cc2ccc(-c3cccc(C(F)(F)F)c3)o2)C(=O)c2ccc(-c3ccccc3)cc2)c2cc(OCCCO)ccc2N1C(=O)Cc1ccc(OC)cc1 (stereo not given in full)")
-0.149
>>> recorded_value("C=C(COC)/C(=C/C[C@H](OC(C)=O)c1ccc(CO)o1)c1cnc2ccccc2c1")
0.969
>>> recorded_value("O=C(O)[C@H]1C[C@H]2C(=O)NCC(=O)N2[C@H]1c1cccc(OCCO)c1")
0.502
>>> recorded_value("COc1ccc(C#Cc2ccc3c(c2)[C@]2(C(=O)N3)[C@H](c3ccc(O)cc3)N3[C@H](c4ccccc4)[C@H](c4ccccc4)OC(=O)[C@H]3[C@@H]2C(N)=O)cc1")
0.662
>>> recorded_value("C=C(C(=O)CC[C@H](OC(C)=O)c1ccc(CO)o1)C(C)C")
0.614
>>> recorded_value("COCCOC(=O)N1C(=O)[C@@]2(c3cc(C#CCCO)ccc31)[C@H](c1ccccc1OCCO)N1[C@H](c3ccccc3)[C@H](c3ccccc3)OC(=O)[C@H]1[C@@H]2C(=O)NC[C@H](O)c1ccccc1")
0.204
>>> recorded_value("C=CCC(OC(C)=O)[C@@H]1[C@@H](N(Cc2ccc(-c3ccccc3)cc2)C(=O)c2ccc(-c3ccccc3)cc2)c2cc(OCCCO)ccc2N1C(=O)c1ccc(-c2ccccc2)cc1 (stereo not given in full)")
-0.0914
>>> recorded_value("COCCOC(=O)N1C(=O)[C@@]2(c3cc(C#CC4(O)CCCCCC4)ccc31)[C@H](c1ccc(O)cc1)N1[C@H](c3ccccc3)[C@H](c3ccccc3)OC(=O)[C@H]1[C@@H]2C(N)=O")
0.704
>>> recorded_value("CCCCC(=C=CC[C@H](O)c1cccc(OCCO)c1)CCO")
0.681
>>> recorded_value("COC(=O)C1=CC(CCCO)=CC(C2CC2)N(Cc2cc3c(cc2Br)OCO3)C=C1C(=O)OC (stereo not given)")
0.92
>>> recorded_value("CCOC(=O)C[C@H]1[C@H](OC(=O)Cc2ccc3c(c2)OCO3)[C@@H](NC(=O)c2ccc3ccccc3c2)c2cc(OCCCO)ccc2N1C(=O)c1ccc2ccccc2n1")
0.371
>>> recorded_value("C#CCOc1ccc(C[C@H]2C(=O)O[C@H](Cc3ccccc3)[C@H](/C=C/C3CC3)N2CC#C)cc1")
0.643
>>> recorded_value("COc1ccc([Si](C)(C)[C@H]2[C@H](CC(=O)N3Cc4ccccc4C[C@H]3CO)O[C@@]3(C(=O)N(Cc4cccc(N5C(=O)COc6ccccc65)c4)c4ccccc43)[C@@H]2C)cc1")
0.635
>>> recorded_value("C=CCC1(CC=C)C[C@H]2CO[C@H](c3ccc(OC)cc3)N2C1=O")
0.448
